Target: Human immunodeficiency virus type 1 protease (Human immunodeficiency virus 1)
Test: Inhibition of recombinant HIV-1 protease measured by fluorometric assay
Cut-off 0.5 µM on Ki: below means Met, at or above means Not met.

CNC(=O)CN1[C@@H](COc2ccccc2)[C@@H](O)[C@H](O)[C@H](COc2ccccc2)N(CC(=O)NC)S1(=O)=O    Not met
COC(Cc1cccc(CN2[C@@H](COc3ccccc3)[C@@H](O)[C@H](O)[C@H](COc3ccccc3)N(Cc3cccc(CC(OC)OC)c3)S2(=O)=O)c1)OC    Not met
CN1[C@@H](COc2ccccc2)[C@@H](O)[C@H](O)[C@H](COc2ccccc2)N(C)S1(=O)=O    Not met
O=S1(=O)N(Cc2cccc(I)c2)[C@@H](COc2ccccc2)[C@@H](O)[C@H](O)[C@H](COc2ccccc2)N1Cc1cccc(I)c1    Met

Input line: Report whether reported Ki is lower than 0.5 µM (strictly) for CNC(=O)c1cccc(CN2[C@@H](COc3ccccc3)[C@@H](O)[C@H](O)[C@H](COc3ccccc3)N(Cc3cccc(C(=O)NC)c3)S2(=O)=O)c1
Output line: Met

---

Biological target: UniProtKB Q72874
Assay: Inhibition of recombinant HIV-1 protease measured by fluorometric assay
Cut-off 0.06 µM on Ki: below means yes, at or above means no.

Reference set, count: 9
O=C1N(Cc2ccccc2)[C@H](COc2ccccc2)[C@H](O)[C@@H](O)[C@@H](COc2ccccc2)N1Cc1ccccc1    yes
O=S1(=O)N(Cc2ccc(CO)cc2)[C@@H](COc2ccccc2)[C@@H](O)[C@H](O)[C@H](COc2ccccc2)N1Cc1ccc(CO)cc1    yes
O=S1(=O)N(Cc2cccc(CCO)c2)[C@@H](COc2ccccc2)[C@@H](O)[C@H](O)[C@H](COc2ccccc2)N1Cc1cccc(CCO)c1    yes
O=S1(=O)N(Cc2ccccc2)[C@@H](COc2ccccc2)[C@@H](O)[C@H](O)[C@H](COc2ccccc2)N1Cc1cccc(-c2cccs2)c1    no
O=S1(=O)N(Cc2cccc(-c3cccs3)c2)[C@@H](COc2ccccc2)[C@@H](O)[C@H](O)[C@H](COc2ccccc2)N1Cc1cccc(-c2cccs2)c1    no
O=S1(=O)N(Cc2ccccc2)[C@@H](COc2ccccc2)[C@@H](O)[C@H](O)[C@H](COc2ccccc2)N1Cc1ccc(-c2cccs2)cc1    no
O=S1(=O)N(Cc2ccccc2)[C@H](COc2ccccc2)[C@H](O)[C@@H](O)[C@@H](COc2ccccc2)N1Cc1ccccc1    yes
O=C(CN1[C@@H](COc2ccccc2)[C@@H](O)[C@H](O)[C@H](COc2ccccc2)N(Cc2cccc(-c3cccs3)c2)S1(=O)=O)Nc1nccs1    no
O=S1(=O)N(Cc2ccc(-c3cccs3)cc2)[C@@H](COc2ccccc2)[C@@H](O)[C@H](O)[C@H](COc2ccccc2)N1Cc1ccc(-c2cccs2)cc1    no

Here is another molecule to look at.
Input line: Report whether reported Ki is lower than 0.06 µM (strictly) for COC(=O)c1ccc(CN2[C@@H](COc3ccccc3)[C@@H](O)[C@H](O)[C@H](COc3ccccc3)N(Cc3ccc(C(=O)OC)cc3)S2(=O)=O)cc1
Output line: no

Data origin, for the record: ChEMBL document CHEMBL1134693
